test system: Mus musculus; assay: Immunomodulatory activity in C57BL/6 mouse assessed as increase in IFN-gamma secretion in serum at 100 ug/kg, ip by ELISA; type: functional, organism-based
The source made the active and inactive calls. The calls are words filed in the database; no cut-off is given here.
Would you mind answering with one of these outcomes? True for active, False for inactive

Please review the following examples before continuing.
[[record]]
smiles_record = "CCCCCCCCCCCCCC[C@@H](O)[C@@H](O)[C@H](CO[C@H]1S[C@H](CO)[C@H](O)[C@H](O)[C@H]1O)NC(=O)CCCCCCC(F)(F)F"
label_class = "False"

[[record]]
smiles_record = "CCCCCCCCCCCCCC[C@@H](O)[C@@H](O)[C@H](CO[C@H]1O[C@H](CO)[C@H](O)[C@H](O)[C@H]1O)NC(=O)C(F)(F)C(F)(F)C(F)(F)C(F)(F)C(F)(F)C(F)(F)C(F)(F)C(F)(F)C(F)(F)C(F)(F)C(F)(F)C(F)(F)C(F)(F)F"
label_class = "False"

[[record]]
smiles_record = "CCCCCCCCCCCCCCCCCCCCCCCCCC(=O)N[C@@H](CO[C@H]1O[C@H](CO)[C@H](O)[C@H](O)[C@H]1O)[C@H](O)[C@H](O)CCCCCCCCCCCCCC"
label_class = "True"


Could you now consider this next compound?
Challenge: For this compound, state the assay outcome: CCCCCCCCCCCCCC[C@@H](O)[C@@H](O)[C@H](CO[C@H]1O[C@H](CO)[C@H](O)[C@H](O)[C@H]1O)NC(=O)CCCCCCC(F)(F)F
Response given: False
